Where these numbers come from: ChEMBL document CHEMBL1759935

- method.notes: Bioavailability in dog
- Type: ADME, organism-based, Canis lupus familiaris
- experimental.setup: in vivo
measure: bioavailability (%)
Lab book: enter the figure in %, no units written.

Cc1ccc(C(F)(F)F)cc1Cn1c(C(=O)NCCC(C)(C)O)cc2cc(C#N)ccc21 42
O=C(c1ccc(OCCN2CCCCC2)cc1)c1c(-c2ccc(O)cc2)sc2cc(O)ccc12 5

Okay, next one:
# lookup: bioavailability of COc1ccc(OC(F)(F)F)cc1Cn1c(C(=O)NCC(C)(C)CO)cc2cc(C#N)ccc21
67

---

- experimental.system: Cannabinoid receptor 1 (Homo sapiens)
- method.notes: Antagonist activity against human CB1 receptor
List of pIC50 values.
Here pIC50 is given on a logarithmic scale as minus log10 of the concentration in mol/L.

Known pIC50 results, listed for orientation:
CCCOc1cccc(Cn2c(C(=O)NCC(C)(C)CO)cc3cc(C#N)ccc32)c1 8.81
COc1ccc(OC(F)(F)F)cc1Cn1c(C(=O)NCC(C)(C)O)cc2cc(C#N)ccc21 7.65
Cc1ccc(Cl)cc1Cn1c(C(=O)NCC(C)(C)CO)cc2cc(C#N)ccc21 9.24
Cc1ccc(F)cc1Cn1c(C(=O)NCC2(CO)CCC2)cc2cc(C#N)ccc21 8.31
Cc1ccc(C(F)(F)F)cc1Cn1c(C(=O)NCCC(C)(C)O)cc2cc(C#N)ccc21 8.29

# get_value(readout='pIC50', item= CC(C)(O)CCNC(=O)c1cc2cc(C#N)ccc2n1Cc1cccc(OC(F)(F)F)c1 )
7.87

Could you do the same for Cc1ccc(C(F)(F)F)cc1Cn1c(C(=O)NCC(C)(C)CO)cc2cc(C#N)ccc21 , please?
9.29

Try this compound next: COc1ccc(C(F)(F)F)cc1Cn1c(C(=O)NCC2(CO)CC2)cc2cc(C#N)ccc21
8.88

What about N#Cc1ccc2c(c1)cc(C(=O)NCCC(O)(C(F)(F)F)C(F)(F)F)n2Cc1cccc(OC(F)(F)F)c1 ?
8.22

Now the same for COc1ccc(Cl)cc1Cn1c(C(=O)NCC2(CO)CCC2)cc2cc(C#N)ccc21
8.59

Now try Cc1ccc(C)c(Cn2c(C(=O)NCC(C)(C)CO)cc3cc(C#N)ccc32)c1 .
9.20

Moving on to the next compound: CC(C)(CO)CNC(=O)c1cc2cc(C#N)ccc2n1Cc1cccc(OC(F)(F)F)c1
8.74

One more compound: N#Cc1ccc2c(c1)cc(C(=O)NCCC1(O)CCC1)n2Cc1cccc(OC(F)(F)F)c1
8.58

Next compound up: COc1ccc(C)cc1Cn1c(C(=O)NCC(C)(C)CO)cc2cc(C#N)ccc21
9.12

Same question for COc1ccc(C(F)(F)F)cc1Cn1c(C(=O)NCC(C)(C)O)cc2cc(C#N)ccc21 please.
7.94

Also COc1ccc(C(F)(F)F)cc1Cn1c(C(=O)NCCC2(O)CCC2)cc2cc(C#N)ccc21 ?
8.83

Same lookup for COc1ccc(OC(F)(F)F)cc1Cn1c(C(=O)NCC2(CO)CC2)cc2cc(C#N)ccc21 , please.
8.29

Now try COc1ccc(C(C)(C)C)cc1Cn1c(C(=O)NCC2(CO)CC2)cc2cc(C#N)ccc21 .
8.83

Then CC(C)(CO)CNC(=O)c1cc2cc(C#N)ccc2n1Cc1cc(Cl)cc(Cl)c1 ?
8.27

---

// reported pIC50 for each item listed
- experimental.system: Cannabinoid receptor 1 (Homo sapiens, UniProt P21554)
- Sequence (P21554 whole entry): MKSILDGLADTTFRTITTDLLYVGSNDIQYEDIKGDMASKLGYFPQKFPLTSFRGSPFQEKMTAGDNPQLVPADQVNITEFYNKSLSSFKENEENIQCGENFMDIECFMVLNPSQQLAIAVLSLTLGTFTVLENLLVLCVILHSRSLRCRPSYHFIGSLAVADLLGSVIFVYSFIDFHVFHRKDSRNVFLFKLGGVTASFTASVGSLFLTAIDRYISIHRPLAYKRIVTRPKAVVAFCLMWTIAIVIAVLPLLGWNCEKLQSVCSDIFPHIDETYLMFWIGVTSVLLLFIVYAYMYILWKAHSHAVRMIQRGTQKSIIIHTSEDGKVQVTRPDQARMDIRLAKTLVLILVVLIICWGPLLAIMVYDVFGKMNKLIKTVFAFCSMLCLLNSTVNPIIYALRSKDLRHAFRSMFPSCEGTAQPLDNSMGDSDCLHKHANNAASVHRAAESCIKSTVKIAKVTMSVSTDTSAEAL
- method.notes: Antagonist activity against human CB1 receptor
Reminder that pIC50 means the negative base-10 logarithm of the concentration expressed in mol/L.

Below are worked cases with known answers.
molecule	endpoint.value
COc1ccc(Br)cc1Cn1c(C(=O)NCC(C)(C)CO)cc2cc(C#N)ccc21	9.11
COc1ccc(Cl)cc1Cn1c(C(=O)NCC(C)(C)CO)cc2cc(C#N)ccc21	8.70
COc1ccc(OC(F)(F)F)cc1Cn1c(C(=O)NCC(C)(C)CO)cc2cc(C#N)ccc21	8.93
COc1ccc(Br)cc1Cn1c(C(=O)NCCCO)cc2cc(C#N)ccc21	8.03
CC(O)CCNC(=O)c1cc2cc(C#N)ccc2n1Cc1cccc(OC(F)(F)F)c1 (stereo not drawn)	8.05

Please look up its pIC50: N#Cc1ccc2c(c1)cc(C(=O)NCCC(O)C(F)(F)F)n2Cc1cccc(OC(F)(F)F)c1 (stereo not drawn)
8.09

Ok, now CCOc1ccc(OC(F)(F)F)cc1Cn1c(C(=O)NCC(C)(C)CO)cc2cc(C#N)ccc21
8.08

CC(O)C1(CNC(=O)c2cc3cc(C#N)ccc3n2Cc2cccc(OC(F)(F)F)c2)CCCC1 (stereo not drawn) , same question.
8.29

---

# Lookup of reported clearance keyed by entry
- Species on record: Rattus norvegicus
- method.notes: Clearance in rat
- Type: ADME, organism-based
- experimental.setup: in vivo
Number in L/h/kg, nothing else.

Below, 2 compounds whose answers are already recorded.
O=C(c1ccc(OCCN2CCCCC2)cc1)c1c(-c2ccc(O)cc2)sc2cc(O)ccc12 3.48
Cc1ccc(C(F)(F)F)cc1Cn1c(C(=O)NCCC(C)(C)O)cc2cc(C#N)ccc21 12

Alright, here's another compound for you.
Please look up its clearance: COc1ccc(OC(F)(F)F)cc1Cn1c(C(=O)NCC(C)(C)CO)cc2cc(C#N)ccc21
6.24

---

- method.notes: Intrinsic clearance in dog liver microsomes in presence of NADPH
- Assay type: ADME, Canis lupus familiaris, Microsome
microsomal CLint for assorted molecules
Give just the numeric value; µL/min/mg need not be written.

Cc1ccc(C(F)(F)F)cc1Cn1c(C(=O)NCCC(C)(C)O)cc2cc(C#N)ccc21 17

State the recorded microsomal CLint for this entry: O=C(c1ccc(OCCN2CCCCC2)cc1)c1c(-c2ccc(O)cc2)sc2cc(O)ccc12
178

---

microsomal CLint: recorded values
- method.notes: Intrinsic clearance in human gut microsomes in presence of UGT
- Assay type: ADME, Microsome
# value in µL/min/mg; strip the unit string

Sample records with microsomal CLint:
molecule	microsomal CLint / µL/min/mg
Cc1ccc(C)c(Cn2c(C(=O)NCC(C)(C)CO)cc3cc(C#N)ccc32)c1	124
COc1ccc(Cl)cc1Cn1c(C(=O)NCC(C)(C)CO)cc2cc(C#N)ccc21	63

# get_value(readout='microsomal CLint', item= COc1ccc(C)cc1Cn1c(C(=O)NCC(C)(C)CO)cc2cc(C#N)ccc21 )
64

---

- method.notes: Intrinsic clearance in human liver microsomes in presence of NADPH
- Format: ADME, Microsome
# key: entry, value: microsomal CLint
Enter your answer as a number in µL/min/mg; do not include the unit.

Examples with their reported microsomal CLint follow.
COc1ccc(OC(F)(F)F)cc1Cn1c(C(=O)NCC2(CO)CC2)cc2cc(C#N)ccc21 139
COc1ccc(C)cc1Cn1c(C(=O)NCC(C)(C)CO)cc2cc(C#N)ccc21 191
COc1ccc(Cl)cc1Cn1c(C(=O)NCC(C)(C)CO)cc2cc(C#N)ccc21 83

// lookup microsomal CLint for Cc1ccc(C)c(Cn2c(C(=O)NCC(C)(C)CO)cc3cc(C#N)ccc32)c1
257

Please do the same for COc1ccc(Br)cc1Cn1c(C(=O)NCC(C)(C)CO)cc2cc(C#N)ccc21 as well.
104

---

# microsomal CLint annotations
- method.notes: Intrinsic clearance in dog gut microsomes in presence of UGT
- Type: ADME, Canis lupus familiaris, Microsome

Illustrative cases are given below, each with its answer.
Cc1ccc(C(F)(F)F)cc1Cn1c(C(=O)NCCC(C)(C)O)cc2cc(C#N)ccc21 < 6 µL/min/mg
COc1ccc(OC(F)(F)F)cc1Cn1c(C(=O)NCC(C)(C)CO)cc2cc(C#N)ccc21 < 6 µL/min/mg

Please turn your attention to the following entry.
Entry O=C(c1ccc(OCCN2CCCCC2)cc1)c1c(-c2ccc(O)cc2)sc2cc(O)ccc12 has what microsomal CLint?
22 µL/min/mg

---

# microsomal CLint per record follows
- method.notes: Intrinsic clearance in rat gut microsomes in presence of NADPH
- Format: ADME, Microsome

Name the recorded microsomal CLint for O=C(c1ccc(OCCN2CCCCC2)cc1)c1c(-c2ccc(O)cc2)sc2cc(O)ccc12 .
< 6 µL/min/mg

Next record, please: Cc1ccc(C(F)(F)F)cc1Cn1c(C(=O)NCCC(C)(C)O)cc2cc(C#N)ccc21
< 6 µL/min/mg

Same read-out for COc1ccc(OC(F)(F)F)cc1Cn1c(C(=O)NCC(C)(C)CO)cc2cc(C#N)ccc21 ?
< 6 µL/min/mg

---

- method.notes: Intrinsic clearance in rat gut microsomes in presence of UGT
- Assay type: ADME, Microsome
// microsomal CLint lookup, one value per entry

compound	measure	endpoint.value
O=C(c1ccc(OCCN2CCCCC2)cc1)c1c(-c2ccc(O)cc2)sc2cc(O)ccc12 [RALOXIFENE]	microsomal CLint	5 µL/min/mg

Which measured microsomal CLint value corresponds to COc1ccc(OC(F)(F)F)cc1Cn1c(C(=O)NCC(C)(C)CO)cc2cc(C#N)ccc21 ?
< 6 µL/min/mg

// next record Cc1ccc(C(F)(F)F)cc1Cn1c(C(=O)NCCC(C)(C)O)cc2cc(C#N)ccc21
< 6 µL/min/mg
